As shown below, each of these molecules has a reported inhibition at 20 µM value.
system: Mycobacterium tuberculosis; test: Antituberculosis activity against Mycobacterium tuberculosis H37Rv assessed as complete growth inhibition at 20 uM after 5 days; type: functional; details: 120 h
Give just the number in %; leave the unit off.

Example molecules with recorded inhibition at 20 µM:
* COc1ccc(CNc2nc(N3CCCCC3)nc3ccccc23)cc1 | 97
* COc1cccc2c(NCc3ccc(F)cc3)nc(N3CCCCC3)nc12 | 83

Attention now turns to another entry.
Query block: Lab note: Mycobacterium tuberculosis assay, enter inhibition at 20 µM for `Ic1cccc(CNc2nc(N3CCCCC3)nc3ccccc23)c1` here
Result block: 98

====

tested on: Mycobacterium tuberculosis; assay: Antituberculosis activity against Mycobacterium tuberculosis H37Rv assessed as complete growth inhibition at 20 uM after 5 days; format: functional; conditions: 120 h
As shown below, each of these compounds has a reported inhibition at 20 µM value.

Example compounds with recorded inhibition at 20 µM:
• CN(C)c1nc(NCc2ccc(F)cc2)c2ccccc2n1 = 40%
• CO[C@H]1/C=C/O[C@@]2(C)Oc3c(C)c(O)c4c(O)c(c(/C=N/N5CCN(C)CC5)c(O)c4c3C2=O)NC(=O)/C(C)=C\C=C\[C@H](C)[C@H](O)[C@@H](C)[C@@H](O)[C@@H](C)[C@H](OC(C)=O)[C@@H]1C [RIFAMPIN] = 100%
• O=C(O)CNC1CCN(c2nc(NCc3ccc(F)cc3)c3ccccc3n2)CC1 = < 30%
• Fc1ccc(CNc2nc(N3CCCCC3)nc3cccnc23)cc1 = < 30%

Query block: Return the recorded inhibition at 20 µM value; entry: `c1ccc2c(N3CCCCC3)nc(N3CCCCC3)nc2c1`
Result block: < 30%

Query block: Return the recorded inhibition at 20 µM value; entry: `Fc1ccc(CNc2cc(N3CCCCC3)nc3ccccc23)cc1`
Result block: 98%

Query block: Return the recorded inhibition at 20 µM value; entry: `Fc1ccccc1CNc1nc(N2CCCCC2)nc2ccccc12`
Result block: 97%

Query block: Return the recorded inhibition at 20 µM value; entry: `Cc1ccc(CNc2nc(N3CCCCC3)nc3ccccc23)cc1`
Result block: 98%

Query block: Return the recorded inhibition at 20 µM value; entry: `Clc1ccc(CNc2nc(N3CCCCC3)nc3ccccc23)c(Cl)c1`
Result block: 98%

Query block: Return the recorded inhibition at 20 µM value; entry: `Fc1ccc(CNc2nc(N3CCCCC3)nc3ccccc23)cc1`
Result block: 97%

====

As shown below, each of these molecules has a reported inhibition at 20 µM value.
system: Mycobacterium tuberculosis; assay: Antituberculosis activity against Mycobacterium tuberculosis H37Rv assessed as complete growth inhibition at 20 uM after 5 days; format: functional; conditions: 120 h
Give just the number in %; leave the unit off.

Query block: Return the recorded inhibition at 20 µM value; entry: `Fc1ccc(CNc2nc(N3CCCCC3)ncc2Cc2ccccc2)cc1`
Result block: 68

Query block: Return the recorded inhibition at 20 µM value; entry: `Clc1ccc(CNc2nc(N3CCCCC3)nc3ccccc23)cc1Cl`
Result block: 98

====

As shown below, each of these compounds has a reported inhibition at 20 µM value.
system: Mycobacterium tuberculosis; assay: Antituberculosis activity against Mycobacterium tuberculosis H37Rv assessed as complete growth inhibition at 20 uM after 5 days; type: functional; details: 120 h
Give just the number in %; leave the unit off.

- COc1cc2nc(N3CCCCC3)nc(NCc3ccc(F)cc3)c2cc1OC: 92

Query block: Return the recorded inhibition at 20 µM value; entry: `Cc1cccc(CNc2nc(N3CCCCC3)nc3ccccc23)c1`
Result block: 99

Query block: Return the recorded inhibition at 20 µM value; entry: `Fc1ccc(CNc2nc(N3CCCCC3)nc3ccccc23)cc1F`
Result block: 96

Query block: Return the recorded inhibition at 20 µM value; entry: `Fc1ccc(CNc2nc(N3CCCCC3)nc3cc(Cl)ccc23)cc1`
Result block: 51

Query block: Return the recorded inhibition at 20 µM value; entry: `CC1CCN(c2nc(NCc3ccc(F)cc3)c3ccccc3n2)CC1`
Result block: 97

Query block: Return the recorded inhibition at 20 µM value; entry: `Fc1ccc2c(c1)CCN(c1nc(N3CCCCC3)nc3ccccc13)C2`
Result block: 94

====

As shown below, each of these molecules has a reported inhibition at 20 µM value.
tested on: Mycobacterium tuberculosis; experiment: Antituberculosis activity against Mycobacterium tuberculosis H37Rv assessed as complete growth inhibition at 20 uM after 5 days; format: functional; details: 120 h

Example molecules with recorded inhibition at 20 µM:
- Fc1ccc(CNc2nc(-c3ccccc3)nc3ccccc23)cc1: < 30%
- Fc1ccc(CNc2nc(N3CCCCC3)nc3cccc(F)c23)cc1: < 30%
- FC(F)(F)Oc1ccc(CNc2nc(N3CCCCC3)nc3ccccc23)cc1: 95%

Query block: Return the recorded inhibition at 20 µM value; entry: `Fc1ccc(CNc2nc(N3CCCCC3)nc3ccsc23)cc1`
Result block: < 30%

Query block: Return the recorded inhibition at 20 µM value; entry: `Fc1ccc(CNc2nc(N3CCCCC3)nc3ccc(Cl)cc23)cc1`
Result block: 49%

Query block: Return the recorded inhibition at 20 µM value; entry: `c1ccc2nc(N3CCCCC3)ncc2c1`
Result block: < 30%

====

test system: Mycobacterium tuberculosis; assay: Antituberculosis activity against Mycobacterium tuberculosis H37Rv assessed as complete growth inhibition at 20 uM after 5 days; assay type: functional; settings: 120 h
Quantity Kind: inhibition at 20 µM (%)
Give just the number in %; leave the unit off.

Example compounds with recorded inhibition at 20 µM:
• Clc1ccc(CNc2nc(N3CCCCC3)nc3ccccc23)cc1 = 99
• Fc1ccc(CNc2nc(N3Cc4ccccc4C3)nc3ccccc23)cc1 = 78

Query block: Lab note: Mycobacterium tuberculosis assay, enter inhibition at 20 µM for `c1ccc2c(CNc3nc(N4CCCCC4)nc4ccccc34)cccc2c1` here
Result block: 97

Query block: Lab note: Mycobacterium tuberculosis assay, enter inhibition at 20 µM for `Fc1ccc(CNc2nc(N3CCCCC3)nc3cnccc23)cc1` here
Result block: 59

Query block: Lab note: Mycobacterium tuberculosis assay, enter inhibition at 20 µM for `CC(C)CNc1nc(N2CCCCC2)nc2ccccc12` here
Result block: 37

Query block: Lab note: Mycobacterium tuberculosis assay, enter inhibition at 20 µM for OCC(Nc1cc(N2CCCCC2)nc2ccccc12)c1ccc(F)cc1 (stereo not drawn) here
Result block: 55

Query block: Lab note: Mycobacterium tuberculosis assay, enter inhibition at 20 µM for `c1ccc(CNc2nc(N3CCCCC3)nc3ccccc23)cc1` here
Result block: 96

Query block: Lab note: Mycobacterium tuberculosis assay, enter inhibition at 20 µM for `Cc1cccc2nc(N3CCCCC3)nc(NCc3ccc(F)cc3)c12` here
Result block: 98

Query block: Lab note: Mycobacterium tuberculosis assay, enter inhibition at 20 µM for `Cc1ccc2nc(N3CCCCC3)nc(NCc3ccc(F)cc3)c2c1` here
Result block: 99

Query block: Lab note: Mycobacterium tuberculosis assay, enter inhibition at 20 µM for `FC(F)(F)c1ccc(CCNc2nc(N3CCCCC3)nc3ccccc23)cc1` here
Result block: 97

Query block: Lab note: Mycobacterium tuberculosis assay, enter inhibition at 20 µM for `COc1ccc2c(NCc3ccc(F)cc3)nc(N3CCCCC3)nc2c1` here
Result block: 74

Query block: Lab note: Mycobacterium tuberculosis assay, enter inhibition at 20 µM for `Fc1ccc(CNc2cc(Cc3ccccc3)nc(N3CCCCC3)n2)cc1` here
Result block: 84

Query block: Lab note: Mycobacterium tuberculosis assay, enter inhibition at 20 µM for `Fc1ccc(CNc2nc(C3CCCCC3)nc3ccccc23)cc1` here
Result block: 47

Query block: Lab note: Mycobacterium tuberculosis assay, enter inhibition at 20 µM for `Fc1ccc(CNc2nc(N3CCCCC3)nc3ccccc23)c(F)c1` here
Result block: 97

Query block: Lab note: Mycobacterium tuberculosis assay, enter inhibition at 20 µM for `COc1ccc(CNc2nc(N3CCCCC3)nc3ccccc23)cc1Cl` here
Result block: 98

====

assay: Oral bioavailability in Sprague-Dawley rat at 10 mg/kg after 24 hrs; assay type: ADME, organism-based; settings: in vivo
Quantity Kind: bioavailability (%)
Give just the number in %; leave the unit off.

Query block: Return the recorded bioavailability value; entry: `Fc1ccc(Cn2cnc3c(N4CCCCC4)nc4ccccc4c32)cc1`
Result block: 3.4

====

system: Mycobacterium tuberculosis; test: Antituberculosis activity against Mycobacterium tuberculosis H37Rv assessed as complete growth inhibition at 20 uM after 5 days; format: functional; conditions: 120 h
Quantity Kind: inhibition at 20 µM

Example compounds with recorded inhibition at 20 µM:
* O=C(O)C(Nc1cc(N2CCCCC2)nc2ccccc12)c1ccc(F)cc1 (stereo not drawn) | < 30%
* Cc1nc(NCc2ccc(F)cc2)c2ccccc2n1 | < 30%

Query block: Return the recorded inhibition at 20 µM value; entry: `Fc1ccc(CSc2nc(N3CCCCC3)nc3ccccc23)cc1`
Result block: < 30%
